The values you see were collected from ChEMBL document CHEMBL3885861.

species: Rattus norvegicus; test: Open TG-GATES - Regimen: Single; format: toxicity, organism-based, Sprague-Dawley; parameters: regimen Single, gender Male, age 6 weeks; conditions: in vivo, po, 0 mg/kg, 6 h, tissue Plasma, route gavage, dose level Control
ASSAY_READOUT: GLC (mg/dL)
Express the result in mg/dL but write the number alone.

**Query** Dear colleague, I am looking for the recorded GLC of the following compound: CC1=C(/C=C/C(C)=C/C=C/C(C)=C/CO)C(C)(C)CCC1 [RETINOL]
**Result** 181.4

**Query** Dear colleague, I am looking for the recorded GLC of the following compound: Cc1ccc(C)c(OCCCC(C)(C)C(=O)O)c1 [GEMFIBROZIL]
**Result** 183

**Query** Dear colleague, I am looking for the recorded GLC of the following compound: CC/C(=C(\c1ccccc1)c1ccc(OCCN(C)C)cc1)c1ccccc1 [TAMOXIFEN]
**Result** 171.2

**Query** Dear colleague, I am looking for the recorded GLC of the following compound: CCOc1ccc(NC(=O)CC(C)O)cc1 (stereo not given) [BUCETIN]
**Result** 178.2

**Query** Dear colleague, I am looking for the recorded GLC of the following compound: NNC(=O)c1ccncc1 [ISONIAZID]
**Result** 197.6

====

species on record: Rattus norvegicus; assay: Open TG-GATES - Regimen: Single; format: toxicity, organism-based, Sprague-Dawley; set-up: regimen Single, gender Male, age 6 weeks; conditions: in vivo, po, 10 mg/kg, 9 h, tissue Plasma, route gavage, dose level Low
ASSAY_READOUT: TG (mg/dL)
Express the result in mg/dL but write the number alone.

CC1=C(/C=C/C(C)=C/C=C/C(C)=C/CO)C(C)(C)CCC1; 50.2
CC(C)OC(=O)C(C)(C)Oc1ccc(C(=O)c2ccc(Cl)cc2)cc1 [FENOFIBRATE]; 31.2
CN(C)CCCN1c2ccccc2CCc2ccc(Cl)cc21; 74

Now examine the next entry.
**Query** Dear colleague, I am looking for the recorded TG of the following compound: CN(C)CCN(Cc1cccs1)c1ccccn1
**Result** 69.2

====

species: Rattus norvegicus; assay: Open TG-GATES - Regimen: Single; format: toxicity, organism-based, Sprague-Dawley; design: regimen Single, gender Male, age 6 weeks; details: in vivo, po, 300 mg/kg, 6 h, tissue Plasma, route gavage, dose level Middle
ASSAY_READOUT: AST (IU/L)
Express the result in IU/L but write the number alone.

NC(N)=Nc1nc(CSCCC(N)=NS(N)(=O)=O)cs1 [FAMOTIDINE]; 66.8

**Query** Dear colleague, I am looking for the recorded AST of the following compound: CCOC(=O)CCC(=O)O[C@H]1[C@H](O[C@@H]2[C@@H](C)[C@H](O[C@H]3C[C@@](C)(OC)[C@@H](O)[C@H](C)O3)[C@@H](C)C(=O)O[C@H](CC)[C@@](C)(O)[C@H](O)[C@@H](C)C(=O)[C@H](C)C[C@@]2(C)O)O[C@H](C)C[C@@H]1N(C)C [ERYTHROMYCIN ETHYLSUCCINATE]
**Result** 72.8

**Query** Dear colleague, I am looking for the recorded AST of the following compound: COc1ccc2[nH]c([S+]([O-])Cc3ncc(C)c(OC)c3C)nc2c1 (centres undefined) [OMEPRAZOLE]
**Result** 66

**Query** Dear colleague, I am looking for the recorded AST of the following compound: COC1=CC(=O)C[C@@H](C)[C@]12Oc1c(Cl)c(OC)cc(OC)c1C2=O [GRISEOFULVIN]
**Result** 68.4
